Would you kindly list growth for each of these compounds?
- Test system: SK-MEL-2 melanoma
- protocol.text: NCI-60 one-dose screen, 48 h (100 = growth as untreated, 0 = no growth, -100 = all killed)
- settings: 10 µM
This is part of a sample that, as a whole, favours compounds with a hit. Of some 83,000 tested, about 20% had one in any assay.
Enter your answer as a number in %; do not include the unit.

Quick one: growth for `CC[C@]12C=CCN3CC[C@@]4(c5ccc(OC)cc5N(C)[C@H]4[C@@](O)(C(=O)OC)[C@@H]1OC(=O)CCC[P+](c1ccc(F)cc1)(c1ccc(F)cc1)c1ccc(F)cc1)[C@@H]32` ?
-46.9

Quick one: growth for `O=C(NC([Se])=NC1CCCCC1)c1ccc2c(c1)OCO2` ?
99.6

Quick one: growth for `COC(=O)C[C@](O)(CCC(C)C)C(=O)O[C@H]1C(OC)=C[C@@]23CCCN2CCc2cc4c(cc2[C@@H]13)OCO4` ?
-46.4

Quick one: growth for `O=C(/C=C/c1ccccc1)c1nc2ccccc2n1Cc1ccc(Br)cc1` ?
-51.1

Quick one: growth for `C[C@H]1[C@H](OC(=O)CCC(=O)Nc2cnccn2)O[C@@H]2OC3(C)CC[C@H]4[C@H](C)CC[C@@H]1[C@@]24OO3` ?
31.2

Quick one: growth for `C[C@H]1[C@H](OC(=O)CCC(=O)N(CCCc2cn(-c3ccc(CN4CCOCC4)cc3)nn2)CCNc2ccnc3cc(Cl)ccc23)O[C@@H]2OC3(C)CC[C@H]4[C@H](C)CC[C@@H]1[C@@]24OO3` ?
44.2

Quick one: growth for `COc1cc(OC)c(S(=O)(=O)N(CCCl)CCCl)cc1C(=O)/C=C/c1ccc(C)cc1` ?
92.3

Quick one: growth for `C[C@H]1[C@H](OC(=O)CCC(=O)N(CCCc2cn(-c3ccc(C#N)cc3)nn2)CCNc2ccnc3cc(Cl)ccc23)O[C@@H]2OC3(C)CC[C@H]4[C@H](C)CC[C@@H]1[C@@]24OO3` ?
31.4

Quick one: growth for `O=C(/C=C/c1ccc(Br)cc1)c1nc2ccccc2n1Cc1ccc(Br)cc1` ?
2.53

Quick one: growth for `O=C(/C=C/c1ccc(F)cc1)c1nc2ccccc2n1Cc1ccc(Br)cc1` ?
-61.3

Quick one: growth for `O=C(/C=C/c1cccc(Br)c1)c1nc2ccccc2n1Cc1ccc(F)cc1` ?
63.9

Quick one: growth for `CC(C)C[C@H](NC(=O)CNC(=O)C[C@H]1O[C@@H]2OC3(C)CC[C@H]4[C@H](C)CC[C@@H]([C@H]1C)[C@@]24OO3)B(O)O` ?
-57.3

Quick one: growth for CCOC(=O)C1=C(Nc2ccccc2)C(=O)OC12C(=O)Nc1ccccc12 (stereo not given) ?
99.9

Quick one: growth for `COc1cc(OC)c(S(=O)(=O)N(CCCl)CCCl)cc1C(=O)/C=C/c1cc(OC)c(OC)c(OC)c1` ?
-94.5

Quick one: growth for `C[C@H]1[C@@H](CC(=O)N[C@@H](Cc2coc3ccccc23)B(O)O)O[C@@H]2OC3(C)CC[C@H]4[C@H](C)CC[C@@H]1[C@@]24OO3` ?
-53.6

====

- Test system: MDA-MB-468 breast
- protocol.text: NCI-60 one-dose screen, 48 h (100 = growth as untreated, 0 = no growth, -100 = all killed)
- settings: 10 µM unless noted
- Experimental: Growth inhibition of the MDA-MB-468 human Breast tumor cell line is measured as a screen for anti-cancer activity. Cells are grown in 96 well plates and exposed to the test compound for 48 hours. Compounds are tested at a single concentration, which is 10^-5 M for most compounds. The reported endpoint is percent growth (GI% or GIPRCNT), where numbers from 0 - 100% represent growth inhibition, and numbers from -100% - 0 represent cell death. […]
The panel holds about 83,000 compounds, 20% with a hit somewhere; the sample as a whole holds those more often.
Would you kindly list growth for each of these compounds?
Enter your answer as a number in %; do not include the unit.

Quick one: growth for `C=CCCCN=C=S` ?
33.9

Quick one: growth for `COC(=O)[C@@H](C)C[C@H](Cc1ccccc1)NC(=O)c1csc([C@@H](C[C@H](C(C)C)N(C)C(=O)[C@@H](NC(=O)C23CC(NC(C)=O)(C2)C3)C2CC2)OC(C)=O)n1` ?
3.05

Quick one: growth for `COC(=O)CCc1c[nH]c2ccc(N(CCCl)CCCl)cc12` ?
8.73

Quick one: growth for CCCCNC(c1ccc(Cl)cc1)C(O)c1ccc(Cl)cc1 (centres undefined) ?
-14.6

Quick one: growth for `COC(=O)[C@H](Cc1ccccc1)NNC(=O)c1csc([C@@H](C[C@H](C(C)C)N(C)C(=O)[C@@H](NC(=O)[C@H]2CCCCN2C)C2CC2)OC(C)=O)n1` ?
-11.2

Quick one: growth for `CC(=O)O[C@H](C[C@H](C(C)C)N(C)C(=O)[C@@H](NC(=O)[C@H]1CCCCN1C)C(C)C)c1nc(C(=O)N[C@@H](Cc2ccccc2)C[C@H](C)C(=O)O)c(C(C)C)s1` ?
19.8

Quick one: growth for `Nc1ccc2c(c1)oc1ccccc12` ?
92.6

Quick one: growth for `O=[N+]([O-])c1cc(I)cc([N+](=O)[O-])c1` ?
88.2

Quick one: growth for `COc1ccc(N)cc1OC` ?
109
